target: T1, soluble human insulin receptor-immunoglobulin heavy chain chimera (human, UniProt P06213 28-956); assay: phage ELISA ratios compared
T1 construct: extracellular domain; Heterotetramer; also called IR; sIR-Fc; not shown: immunoglobulin heavy chain constant domains replacing the transmembrane and intr
readout_name: IR/IGF-1R ratio comparison
Give the figure only, with no unit attached.

In: Dear colleague, I am looking for the recorded IR/IGF-1R ratio comparison of the following binder: RAGSSDFHEDFYEWFVRQVSLSLKGK [H2CA-2-B9-IGFR]
Out: 0.2

In: Moving on to TLRSPTFYDWLEMVLTHGQGG [20E2B-1-A8-IGFR]
Out: 0.2

In: Moving on to HLADGQFHEKFYDWFERQISSRCNDC [H2CA-3-E11-IGFR]
Out: 0.5

In: Moving on to SAAQLFFQESFYDWFLRQVAESSQPN [H2CA-4-F11-IGFR]
Out: 0.1

In: Moving on to LSSDGQFYRALNLLLQGSAGR [20E2B-2-B7-IGFR]
Out: 0.1

In: Moving on to GVRAMSFYDALVSVLGLGPSG [20E2B-1-A6-IGFR]
Out: 0.1

In: Moving on to IQQELTFYDLLHRLVRSELGS [20E2B-3-D2-IGFR]
Out: 0.1
